Form field: Ki (one value per entry).
# test target: MASP-2 (CCP1-CCP2-SP) (Homo sapiens (Human))
# experiment: biochemical
# Format: biochemical
# conditions: read-out: MASP-2 Ki
Structures can show the parent of a compound that is named as a salt.
observed property: Ki

1) Cc1nc(N)ccc1CNC(=O)[C@H](C)NC(=O)[C@H]1C[C@H](Cc2ccccc2-c2ccc(Cl)s2)CN1 [compound 1410, Trifluoroacetate]; < 500 nM
2) Cc1cccc(C[C@@H]2CN[C@@H](C(=O)N[C@@H](C)C(=O)NCc3ccc(N)nc3C)C2)c1 [compound 1337, dihydrochloride]; < 500 nM
3) C[C@H](NC(=O)[C@H]1C[C@H](Cc2ccccc2)CN1)C(=O)NCc1cc(Cl)cc(Cl)c1O [compound 1448, hydrochloride]; < 500 nM

====

# test target: MASP-2 (CCP1-CCP2-SP) (Homo sapiens (Human), UniProt O00187)
# Sequence (O00187 445-686): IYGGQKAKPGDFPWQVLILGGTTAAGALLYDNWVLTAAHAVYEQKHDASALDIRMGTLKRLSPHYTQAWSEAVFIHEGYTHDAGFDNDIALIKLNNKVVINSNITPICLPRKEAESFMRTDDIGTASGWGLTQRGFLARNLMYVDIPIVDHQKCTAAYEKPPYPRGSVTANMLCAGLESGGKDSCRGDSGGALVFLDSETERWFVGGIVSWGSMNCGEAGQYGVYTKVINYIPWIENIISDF
# experiment: biochemical
# Assay type: biochemical
# conditions: selectivity for MASP-2 inhibition versus thrombin
Structures can show the parent of a compound that is named as a salt.
observed property: MASP-2 vs. thrombin selectivity

1) Cc1nc(N)ccc1CNC(=O)[C@H](C)NC(=O)[C@H]1C[C@H](c2ccccc2)CCN1 [compound 1308, Dihydrochloride]; ** (≥5.0 to <25-fold)
2) C[C@H](NC(=O)[C@H](N)CCc1ccccc1)C(=O)NCc1cc(Cl)ccc1-n1cncn1; −− (<1.0-fold)
3) C[C@H](NC(=O)[C@H]1C[C@H](Cc2ccccc2)CN1)C(=O)NCc1cnc2[nH]cc(Cl)c2c1 [compound 1334, Di-hydrochloride]; −− (<1.0-fold)
4) Cc1nc(N)ccc1CNC(=O)[C@H](C)NC(=O)[C@@H](CCc1ccccc1)NCc1ccc(Cl)cc1; ** (≥5.0 to <25-fold)

====

# test target: human α-thrombin (Homo sapiens (Human), UniProt P00734)
# experiment: Enzymatic assay for thrombin (Boc-VPR-AMC substrate)
# Format: biochemical
# conditions: Thrombin Ki (μM)
Where a name gives a salt, the structure may show the parent alone.
observed property: Ki

1. C[C@H](NC(=O)[C@H]1C[C@H](Cc2ccccc2Br)CN1)C(=O)NCc1cnc2c(c1)c(Cl)cn2C [compound 1482, Hydrochloride]; 0.5 to 2.5 µM
2. COc1ccc(C[C@@H]2CN[C@@H](C(=O)N[C@@H](C)C(=O)NCc3ccc(N)nc3C)C2)cc1Cl [compound 1475, Di-trifluoroacetate salt]; 10 to 25 µM
3. Cc1ccc([C@H]2CCN[C@@H](C(=O)N[C@@H](C)C(=O)NCc3ccc(C(=N)N)cc3)C2)cc1; 10 to 25 µM
4. Cc1[nH]c(C(=O)N[C@@H](C)C(=O)NCc2ccc(C(=N)N)cc2)cc1-c1ccccc1; 2.5 to 10 µM
5. C[C@H](NC(=O)[C@H]1C[C@@H](c2cccc(C#N)c2)CN1)C(=O)NCc1ccc(C(=N)N)cc1; 2.5 to 10 µM
6. Cc1nc(N)ccc1CNC(=O)[C@H](C)NC(=O)[C@H]1C[C@H](C2(c3ccccc3)CC2)CN1 [compound 1481, Di-trifluoroacetate salt]; 2.5 to 10 µM

====

# test target: mMASP-2 (Mus musculus (Mouse), UniProt Q91WP0)
# Sequence (Q91WP0 20-685): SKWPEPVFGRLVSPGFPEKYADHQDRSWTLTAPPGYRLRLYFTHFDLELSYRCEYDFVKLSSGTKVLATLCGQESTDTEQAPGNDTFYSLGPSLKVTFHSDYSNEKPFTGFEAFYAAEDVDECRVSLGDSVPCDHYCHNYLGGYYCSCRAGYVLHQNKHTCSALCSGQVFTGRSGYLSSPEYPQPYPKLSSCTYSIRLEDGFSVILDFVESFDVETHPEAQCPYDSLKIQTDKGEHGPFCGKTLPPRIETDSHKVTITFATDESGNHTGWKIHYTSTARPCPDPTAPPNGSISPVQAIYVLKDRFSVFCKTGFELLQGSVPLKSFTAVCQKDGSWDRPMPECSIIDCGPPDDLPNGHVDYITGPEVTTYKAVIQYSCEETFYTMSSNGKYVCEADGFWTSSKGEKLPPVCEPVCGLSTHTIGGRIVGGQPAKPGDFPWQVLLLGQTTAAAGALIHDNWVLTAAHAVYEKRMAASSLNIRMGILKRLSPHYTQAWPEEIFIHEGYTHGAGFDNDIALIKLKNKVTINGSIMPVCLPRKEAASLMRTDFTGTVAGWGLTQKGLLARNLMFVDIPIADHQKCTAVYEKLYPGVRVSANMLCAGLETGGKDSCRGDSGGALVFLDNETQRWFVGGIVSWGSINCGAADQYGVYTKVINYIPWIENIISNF
# experiment: Enzymatic inhibition of mMASP-2
# Assay type: biochemical
# conditions: read-out: mMASP-2 Ki
Counter-ions that a name gives are not always drawn.
# Ki per record follows
observed property: Ki

1. Cc1nc(N)ccc1CNC(=O)[C@H](C)NC(=O)[C@H]1C[C@H](Cc2cc(Cl)cc3ccccc23)CN1 [compound 1432, Dihydrochloride]; < 500 nM
2. C[C@H](NC(=O)[C@H]1C[C@H](c2ccccc2)CN1)C(=O)NCc1cnc2c(c1)c(Cl)cn2C [compound 1442, Dihydrochloride]; < 500 nM
3. CC(=O)Nc1ccc(Cl)cc1CNC(=O)[C@H](C)NC(=O)[C@H]1C[C@H](c2ccccc2)CN1; 10000 to 25000 nM
4. CCc1cccc([C@H]2CN[C@@H](C(=O)N[C@@H](C)C(=O)NCc3ccc(N)nc3C)C2)c1 [compound 1303, Dihydrochloride]; 2500 to 10000 nM
5. C[C@H](NC(=O)[C@@H](CCc1ccccc1)NCCc1ccc(Cl)cc1)C(=O)NCc1ccc(C(=N)N)cc1 [compound 1339, Di-trifluoroacetate salt]; < 500 nM
6. COc1ccc(C[C@@H]2CN[C@@H](C(=O)N[C@@H](C)C(=O)NCc3ccc(N)nc3C)C2)cc1Cl [compound 1475, Di-trifluoroacetate salt]; < 500 nM
7. CCCCCN[C@H](CCc1ccccc1)C(=O)N[C@@H](C)C(=O)NCc1ccc(N)nc1C [compound 1377, Di-trifluoroacetate salt]; > 25000 nM
8. Cc1ccccc1CC[C@@H](N)C(=O)N[C@@H](C)C(=O)NCc1ccc(C(=N)N)cc1; < 500 nM
9. Cc1nc(N)ccc1CNC(=O)[C@H](C)NC(=O)c1cc(Cc2ccccc2)c[nH]1; 500 to 2500 nM
10. C[C@H](NC(=O)[C@H](N)CCc1ccccc1)C(=O)NCc1cnc(N)c(Cl)c1; > 25000 nM
11. Cc1cccc(CC[C@@H](N)C(=O)N[C@@H](C)C(=O)NCc2ccc(C(=N)N)cc2)c1C; < 500 nM
12. Cc1cccc(C[C@@H]2CN[C@@H](C(=O)N[C@@H](C)C(=O)NCc3ccc(N)nc3C)C2)c1 [compound 1337, dihydrochloride]; < 500 nM
13. CCN1CC[C@H](c2ccccc2)C[C@@H]1C(=O)N[C@@H](C)C(=O)NCc1ccc(N)nc1C; 500 to 2500 nM

====

# test target: human α-thrombin (Homo sapiens (Human))
# experiment: Enzymatic assay for thrombin (Boc-VPR-AMC substrate)
# Type: biochemical
# conditions: +Zn; read-out: Thrombin Ki
Where a name gives a salt, the structure may show the parent alone.
observed property: Ki

1) N=C(N)c1ccc2[nH]c(-c3cccc(-c4ccc(F)cc4)n3)nc2c1 [compound 2016, dihydrochloride]; < 25 µM
2) N=C(N)c1ccc2[nH]c(Cc3ccccn3)nc2c1 [compound 2002, Dihydrochloride]; < 25 µM
3) CCc1cccc(-c2nc3cc(C(=N)N)ccc3[nH]2)n1 [compound 2008, dihydrochloride]; < 10 µM
4) N=C(N)c1ccc2[nH]c(-c3cc4ccccc4cn3)nc2c1 [compound 2014, dihydrochloride]; < 2.5 µM

====

# test target: UniProtKB O00187
# experiment: biochemical
# Format: biochemical
# conditions: MASP-2 inhibition versus thrombin
observed property: MASP-2 vs. thrombin selectivity

1) N=C(N)c1ccc(CNC(=O)[C@@H]2CCN2C(=O)[C@@H](CCCc2ccccc2)NCC(=O)O)cc1; −− (less than 1.0-fold)
2) C[C@H](NC(=O)[C@H](N)CCc1ccccc1)C(=O)NCc1ccc(C(=N)N)cc1; ** (5.0 to 25-fold)
3) N=C(N)c1ccc(CNC(=O)[C@@H]2CCCN2C(=O)[C@H](N)C2CCCCC2)cc1; −− (less than 1.0-fold)
4) C[C@H](NC(=O)[C@H](N)C1Cc2ccccc2C1)C(=O)NCc1ccc(C(=N)N)cc1; ** (5.0 to 25-fold)

====

# test target: human α-thrombin (Homo sapiens (Human), UniProt P00734)
# experiment: Enzymatic assay for thrombin (Boc-VPR-AMC substrate)
# Type: biochemical
# conditions: Thrombin Ki (μM)
Structures can show the parent of a compound that is named as a salt.
Each record here notes measured Ki.
observed property: Ki

1) Cc1nc(N)ccc1CNC(=O)[C@H](C)NC(=O)[C@H]1C[C@H](Cc2cc(Br)no2)CN1 [compound 1421, Di-trifluoroacetate salt]; 10 to 25 µM
2) C[C@H](NC(=O)[C@H]1C[C@@H](c2ccccc2)CCN1)C(=O)NCc1cc(Cl)ccc1-n1cnnn1 [compound 1426, Trifluoroacetate]; 0.5 to 2.5 µM
3) Cc1nc(N)ccc1CNC(=O)[C@H](C)NC(=O)[C@H]1CN(Cc2ccccc2)CCN1 [compound 1347, Dihydrochloride]; 0.5 to 2.5 µM
4) C[C@H](NC(=O)[C@H]1C[C@H](c2ccccc2)CN1)C(=O)NCc1cnc2[nH]cc(Cl)c2c1 [compound 1329, Dihydrochloride]; 0.5 to 2.5 µM
5) Cc1nc(N)ccc1CNC(=O)[C@H](C)NC(=O)[C@H]1C[C@H](Cc2cc(-c3ccccc3)cs2)CN1 [compound 1399, Dihydrochloride]; 10 to 25 µM
6) Cc1nc(N)ccc1CNC(=O)[C@H](C)NC(=O)[C@@H]1C[C@H](Cc2ccccc2)CCN1 [compound 1354, Dihydrochloride]; 2.5 to 10 µM
7) C[C@H](NC(=O)c1nc(-c2ccccc2)cs1)C(=O)NCc1ccc(C(=N)N)cc1 [compound 1286]; 0.5 to 2.5 µM
8) C[C@H](NC(=O)[C@H]1C[C@H](Cc2ccc(-c3ccc(F)cc3C(N)=O)cc2)CN1)C(=O)NCc1cc(Cl)ccc1-n1cnnn1 [compound 1405, Hydrochloride]; 0.5 to 2.5 µM
9) Cc1nc(N)ccc1CNC(=O)[C@H](C)NC(=O)[C@H]1C[C@H](Cc2ccc(Cl)cc2Cl)CN1 [compound 1443, Dihydrochloride]; 0.5 to 2.5 µM
10) CCc1cccc([C@H]2CN[C@@H](C(=O)N[C@@H](C)C(=O)NCc3ccc(C(=N)N)cc3)C2)c1 [compound 1302, Dihydrochloride]; 0.5 to 2.5 µM
11) C[C@H](NC(=O)[C@H]1C[C@H](Cc2ccc(C3CCC3)cc2)CN1)C(=O)NCc1cnc2[nH]cc(Cl)c2c1 [compound 1378, Di-trifluoroacetate salt]; 0.5 to 2.5 µM
12) COc1ccc2cc(C[C@@H]3CN[C@@H](C(=O)N[C@@H](C)C(=O)NCc4ccc(N)nc4C)C3)ccc2c1 [compound 1453, Dihydrochloride]; 10 to 25 µM
